Below: a set of entries, each annotated with reported pKd.
target: T1, SARS-CoV-2 N protein, full-length (SARS-CoV-2, UniProt P0DTC9 1-419); assay: Octet (BLI) kinetics
T1 construct: mature; also called SARS-CoV-2 nucleoprotein
pKd: −log10 of the molar value.
endpoint.label: pKd

binder="NP3-F10 (antibody, V domains shown) VH: EVQLQQSGAELVEPGAPVKLSCKAFGYTFTSYWMNWVKQRPGRGLEWIGRIDPSDSETHYNQNFKDKAALTVDRSSSTAYIHLSSLTSEDSAVYYCAREVTTATKGVFSWLAYWGQGTLVTVSA VL: DIQMTQTTSSLSASLGDRVTISCSASQDISDYLNWYQQKPDGTIKLLIYYTSSLHSGAPSRFSGSGSGTDYSLTISNLEPEDIATYYCQQYSKLPWTFGGGTKLELK" recorded_value=8.60
binder="NP3-C5 (antibody, V domains shown) VH: QIQLVQSGPELKTPGETVKISCKASGYTFTNCGMHWVKQAPGKGLKWMGWINTYTGEPIYADDFKRRFAFSLETSASTAYLQINNLNNEDTASYFCARRDDVYYVAGFDYWGQGTTVTVFS VL: DIQMTQSPASLSVSVGETVTITCRASENIYSNLAWYQQKQGKSPQLLVYGATDLADGVPSRFSGSGSGTQYSLKINSLQSEDFGSYYCQHFWGTPWTFGGGTKLELK" recorded_value=9.14
